# measured_on: human LAP-TGFβ1 expressed on P3U1 cells (human, UniProt P01137 30-390)
# Sequence (P01137 30-390): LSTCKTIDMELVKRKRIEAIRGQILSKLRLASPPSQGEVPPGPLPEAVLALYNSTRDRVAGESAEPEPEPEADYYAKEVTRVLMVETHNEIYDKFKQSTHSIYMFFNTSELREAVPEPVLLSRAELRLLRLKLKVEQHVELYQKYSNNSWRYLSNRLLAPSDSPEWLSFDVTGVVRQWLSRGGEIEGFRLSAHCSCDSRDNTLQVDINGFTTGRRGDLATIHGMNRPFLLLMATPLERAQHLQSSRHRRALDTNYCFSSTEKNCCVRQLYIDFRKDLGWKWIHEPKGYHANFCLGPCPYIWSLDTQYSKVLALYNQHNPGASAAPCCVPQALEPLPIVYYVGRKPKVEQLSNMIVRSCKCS
# protocol_summary: cell-based or functional assay
readout_name: ELISA assay #1 EC50
Numeric answer plus unit only.

{"columns": ["binder", "ELISA assay #1 EC50"],
 "data": [
  ["10BLM (antibody, human IgG1, kappa, L234A L235A, V domains shown) VH: EVQLVQSGAEVKKPGASVKVSCKASGYTFTSYDMHWVRQAPGQGLEWMGRIDPQSGGTKYAQKFQGRATLTVDTSTSTAYMELSRLRSDDTAVYYCARWDYGGYFDVWGQGTLVTVSS VL: DIQMTQSPSSLSASVGDRVTITCRASQDIYNYLNWYQQKPGKAVKLLIYYTSVLETGVPSRFSGSGSGTDYTLTISSLQPEDFATYFCQQGDTLPWTFGQGTKLEIKR", "0.0332 mg/L"]
]}

Continue with the binder presented below.
Input: # input binder: 13BLM (antibody, human IgG1, kappa, L234A L235A, V domains shown) VH: EVQLVQSGAEVKKPGASVKVSCKASGYTFTSYDMHWVRQAPGQGLEWMGRIDPQTGDIKYAQKFQGRATLTVDTSTSTAYMELSRLRSDDTAVYYCARWDYGGQFDVWGQGTLVTVSS VL: DIQMTQSPSSLSASVGDRVTITCRASQDIYNYLNWYQQKPGKAVKLLIYYTSGLETGVPSRFSGSGSGTDYTLTISSLQPEDFATYFCQQGDTLPWTFGQGTKLEIKR ; wanted: its ELISA assay #1 EC50
Output: 0.0785 mg/L

src = patent US20230272056A1
